The measured values listed here are drawn from ChEMBL document CHEMBL1131297.

- procedure.details: Solubility in pH 7.4 Phosphate buffer
- Type: physicochemical
value.type: solubility

Q: I would be grateful if you could share the reported solubility for Cc1oc(-c2ccccc2)nc1CCOc1ccc(C[C@H](Nc2ccccc2C(=O)c2ccccc2)C(=O)O)cc1 [FARGLITAZAR] .
Ans: < 1 µg/mL

---

- assayed.system: Peroxisome proliferator-activated receptor gamma (Homo sapiens)
- Sequence (P37231 whole entry): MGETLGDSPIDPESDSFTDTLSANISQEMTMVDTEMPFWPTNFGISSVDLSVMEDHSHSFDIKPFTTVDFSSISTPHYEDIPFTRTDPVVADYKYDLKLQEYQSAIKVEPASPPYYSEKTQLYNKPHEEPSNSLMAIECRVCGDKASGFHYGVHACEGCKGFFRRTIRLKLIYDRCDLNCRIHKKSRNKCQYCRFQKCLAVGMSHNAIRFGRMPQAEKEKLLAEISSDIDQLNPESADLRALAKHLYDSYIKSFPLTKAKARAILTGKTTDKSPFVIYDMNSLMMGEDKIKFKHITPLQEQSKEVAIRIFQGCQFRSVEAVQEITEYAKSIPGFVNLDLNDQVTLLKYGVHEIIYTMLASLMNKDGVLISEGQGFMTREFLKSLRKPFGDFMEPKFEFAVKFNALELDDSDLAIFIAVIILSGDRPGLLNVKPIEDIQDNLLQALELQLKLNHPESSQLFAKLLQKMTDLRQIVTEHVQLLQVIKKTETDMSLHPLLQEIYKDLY
- procedure.details: in vitro agonist activity against peroxisome proliferator activated receptor-gamma (PPAR-gamma), using alkaline phosphatase activity transactivator assay
- Assay type: functional
value.type: pEC50
To interpret pEC50, take it as minus log10 of a concentration measured in moles per litre.

Study these solved cases before continuing.
[
  {
    "molecule": "CN(CCOc1ccc(CC(Nc2cscc2C(=O)c2ccccc2)C(=O)O)cc1)c1nc2ccccc2o1 (centres undefined)",
    "measured.number": 8.08
  },
  {
    "molecule": "CN(CCOc1ccc(CC(Nc2ccccc2C(=O)c2ccc(OCc3ccccc3)cc2)C(=O)O)cc1)c1nc2ccccc2o1 (centres undefined)",
    "measured.number": 6.12
  },
  {
    "molecule": "Cc1oc(-c2ccccc2)nc1CCOc1ccc(CC(Nc2ccccc2C(=O)c2ccc(C(=O)O)cc2)C(=O)O)cc1 (centres undefined)",
    "measured.number": 5.12
  },
  {
    "molecule": "COc1ccc(C(=O)c2ccccc2NC(Cc2ccc(OCCN(C)c3nc4ccccc4o3)cc2)C(=O)O)cc1 (centres undefined)",
    "measured.number": 7.49
  },
  {
    "molecule": "CSc1nc(NC(Cc2ccc(OCCN(C)c3nc4ccccc4o3)cc2)C(=O)O)c(C(=O)c2ccccc2)s1 (centres undefined)",
    "measured.number": 5.39
  }
]

Q: I would be grateful if you could share the reported pEC50 for CN(CCOc1ccc(CC(Nc2ccccc2C(=O)c2cccs2)C(=O)O)cc1)c1nc2ccccc2o1 (centres undefined) .
Ans: 7.34

Q: I would be grateful if you could share the reported pEC50 for Cc1oc(-c2ccccc2)nc1CCOc1ccc(CC(Nc2ccccc2C(=O)c2cccc(CO)c2)C(=O)O)cc1 (centres undefined) .
Ans: 7.61

Q: I would be grateful if you could share the reported pEC50 for `CN(CCOc1ccc(C[C@H](Nc2ccccc2C(=O)C2CCCCC2)C(=O)O)cc1)c1nc2ccccc2o1` .
Ans: 8.54
